Experiment: physchem
property_name: half-life (h)
Give bare numbers, in h.

IN: Which half-life value belongs to CC(=O)O[C@H]1C(=O)[C@@]2(C)[C@H]([C@H](OC(=O)c3ccccc3)[C@]3(O)C[C@H](OC(=O)[C@H](O)[C@@H](NC(=O)c4ccccc4)c4ccccc4)C(C)=C1C3(C)C)[C@]1(OC(C)=O)CO[C@@H]1C[C@@H]2O [Taxol] ?
OUT: 19
